# IC50 values compiled below
- Tested on: full length human vWF binding to lyophilized platelets
- method: Full length human von Willebrand Factor platelet binding assay (FACS)
- Assay type: cell-based
- conditions-used: 5 nM full length human vWF, lyophilized platelets, botrocetin; read-out: Inhibition of full length hVWF binding in FACS assay, Average IC50
- Protocol: The amount of vWF bound to fixed platelets can be measured with an antibody to vWF. The fluorescence signal from bound antibody incubated with a fluorescein conjugated secondary antibody is then detected and quantified by flow cytometry. The ability of an aptamer of the invention to block vWF binding to platelets is correlated with a reduction in fluorescence signal. Aptamer potency to block human vWF binding to lyophilized platelets was assessed by flow cytometric analysis. […]
Oligonucleotides are written 5' to 3', each unit as a sugar letter and its base; * is a phosphorothioate linkage, no mark a phosphodiester; rarer units and linkages stand in square brackets, end groups in braces. Plain capitals give the bases only. [invdT] = inverted (3'-3') thymidine; d = 2'-deoxy (DNA); r = 2'-OH (RNA); f = 2'-fluoro
experimental-endpoint: IC50 (nM)

• GGAGCGCACTCAGCCACGGGGTGGGTAGACGGCGGGTATGTGGCT (chemistry not given here) [SEQ ID NO 177, minimized rRdY aptamer] = 3
• GGAGCCACACGACATTGGCGGGCGAGAGCCACGCATGGCTCC (rGrGrArGdCdCrAdCrAdCrGrAdCrAdTdTrGrGdCrGrGrGdCrGrArGrArGdCdCrAdCrGdCrAdTrGrGdCdTdCdC) [SEQ ID NO 192, minimized rRdY aptamer] = 2.6
• GGAGCCACACGACATTGGCGGGTTGTAATTACCACGCATGGCTCC (rGrGrArGdCdCrAdCrAdCrGrAdCrAdTdTrGrGdCrGrGrGdTdTrGdTrArAdTdTrAdCdCrAdCrGdCrAdTrGrGdCdTdCdC) [SEQ ID NO 189, minimized rRdY aptamer] = 1.1
• GGGACGGGGTGGGTAGACGGCGGGTATGTCCC (rGrGrGrAdCrGrGrGrGdTrGrGrGdTrArGrAdCrGrGdCrGrGrGdTrAdTrGdTdCdCdC) [SEQ ID NO 183, minimized rRdY aptamer] = 26.5
• GGAGCCACGGGGTGGGTAGACGGCGGGTATGTGGCTCC (rGrGrArGdCdCrAdCrGrGrGrGdTrGrGrGdTrArGrAdCrGrGdCrGrGrGdTrAdTrGdTrGrGdCdTdCdC) [SEQ ID NO 180, minimized rRdY aptamer] = 2
• GGACCACCCUCGCAAGCAUUGAGAAAUGACUUGUGCCGCUGGUCC (rGrGrAfCfCrAfCfCfCfUfCrGfCrArArGfCrAfUfUrGrArGrArArAfUrGrAfCfUfUrGfUrGfCfCrGfCfUrGrGfUfCfC) [SEQ ID NO 172, minimized rRfY aptamer] = 4.3
• GGACGATCTGACTAGCTCCAGTGTTTTATCTAATAACCGTCC (DNA, backbone not given here) [SEQ ID NO 208, minimized DNA aptamer] = 4.3
• GGCGTGCAGTGCCTATTCTAGGCCGTGCGGTGCCTCCGTCACGCC-3T (DNA, [invdT] at 3' end, backbone not given here) [ARC 1027, minimized DNA aptamer] = 1.5
• dGCGTGCAGTGCCT-[PEG]-AGGCCGTGCGGTGCCTCCGTCACGCC-3T (DNA GCGTGCAGTGCCTAGGCCGTGCGGTGCCTCCGTCACGCCT; chemistry not fully specified) [ARC1028, minimized DNA aptamer] = 1.2
• GGCCACACGACATTGGCGGGCGAGAGCCACGCATGGCC (rGrGdCdCrAdCrAdCrGrAdCrAdTdTrGrGdCrGrGrGdCrGrArGrArGdCdCrAdCrGdCrAdTrGrGdCdC) [SEQ ID NO 198, minimized rRdY aptamer] = 20.6
• GGAGCCACACGACATTGGCGCGAGAGCGCATGGCTCC (chemistry not given here) [SEQ ID NO 201, minimized rRdY aptamer] = 150
• GGACCACCCUCGCAAGCAUUUUAAGAAUGACUUGUGCCGCUGGUCC (rGrGrAfCfCrAfCfCfCfUfCrGfCrArArGfCrAfUfUfUfUrArArGrArAfUrGrAfCfUfUrGfUrGfCfCrGfCfUrGrGfUfCfC) [SEQ ID NO 169, minimized rRfY aptamer] = 6.9
• GGAGCGCACUCAGCCACCCUCGCAAGCAUUUUAAGAAUGACUUGUGCCGCUGGCU G (rGrGrArGfCrGfCrAfCfUfCrArGfCfCrAfCfCfCfUfCrGfCrArArGfCrAfUfUfUfUrArArGrArAfUrGrAfCfUfUrGfUrGfCfCrGfCfUrGrGfCfUrG) [SEQ ID NO 165, minimized rRfY aptamer] = 6.4
• GGCGTGCAGTGCC-[PEG]-GGCCGTGCGGTGCCTCCGTCACGCC-3T (DNA GGCGTGCAGTGCCGGCCGTGCGGTGCCTCCGTCACGCCT; chemistry not fully specified) [ARC1029, minimized DNA aptamer] = 0.609
• GGAGCGCACTCAGCCACACGACATTGGCGGGTTGTAATTACCACGCATGGCTG (chemistry not given here) [SEQ ID NO 186, minimized rRdY aptamer] = 1.3
• GGACCACCCUCGCAACGAGAGUUGUGCCGCUGGUCC (rGrGrAfCfCrAfCfCfCfUfCrGfCrArAfCrGrArGrArGfUfUrGfUrGfCfCrGfCfUrGrGfUfCfC) [SEQ ID NO 174, minimized rRfY aptamer] = 6.6
